The reported measurements were obtained from patent US20220017611A1.

SYSTEM_TESTED: Tau RD (MTBD) P301S fused to CFP or YFP, in HEK293 Tau RD P301S FRET Biosensor cells (UniProt P10636)
Sequence (P10636 561-689 P618S): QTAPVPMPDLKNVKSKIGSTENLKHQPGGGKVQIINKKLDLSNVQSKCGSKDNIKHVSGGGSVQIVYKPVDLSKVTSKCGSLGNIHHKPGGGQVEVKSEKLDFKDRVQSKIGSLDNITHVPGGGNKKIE
ASSAY_PROTOCOL: cell-based or functional assay
PROPERTY: mCherry-gated FRET positive cells after MTBD seeds (%)

BINDER | OBSERVED
mCherry-VHH Mut3 (VHH, not shown: large carriers) VHH: EVQLQASGGVFVQSGGSLRLSCAASGATSTFDGMGWFRQAPGKEKEFVSAISYEQGSYTYYADSVKGRFTISRDNSKNMVYLQMNSLRAEDTATYYCAPAYEGDLYAFDSYGGQGTQVTVSS | 8.2
mCherry-VHH E4-1 (VHH, not shown: large carriers) VHH: EVQLQASGGGFVQPGGSLRLSCAASGATSTFDGMGWFRQAPGKEREFVSAISYEQGSYTYYADSVKGRFTISRDNSKNTVYLQMNSLRAEDTATYYCAPAYEGDLYAFDSYWGQGTQVTVSS | 15.2
mCherry-VHH Mut12 (VHH, not shown: large carriers) VHH: AEVQLQASGGVFVQSGGSLRLCCAASGATSTFDGMGWFRQAPGKEREFVSAISYEQGSYTYYADSVKGRFTISRDNSKNMVYLQMNSLRAEDTATYYCAPAYEGDLYAFDSYGEQGTQVTVSS | 8.5
mCherry-VHH Z70 (VHH, not shown: large carriers) VHH: EVQLQASGGVFVQSGGSLRLSCAASGATSTFDGMGWFRQAPGKEREFVSAISYEQGSYTYYADSVKGRFTISRDNSKNMVYLQMNSLRAEDTATYYCAPAYEGDLYAFDSYGGQGTQVTVSS | 9.9
